Listed below: Binding affinity values for each entry.
Biological target: Transthyretin (Homo sapiens) (UniProt P02766)
Test: Relative binding affinity against prealbumin in competition binding assay and expressed as relative to L-T4 (100)
quantity.measured: Binding affinity

> print(dat)
                         compound.structure                       experimental.target  quantity.measured  meas.value
1  N[C@@H](Cc1cc(I)c(Oc2cc(I)c(O)c(I)c2)c(I)c1)C(=O)O  Transthyretin (Homo sapiens) (UniProt P02766)   Binding affinity         100
2  O=C(O)CCCCC(=O)Nc1cc(Cl)cc2c1oc1cc(Cl)c(Cl)cc12  Transthyretin (Homo sapiens) (UniProt P02766)   Binding affinity        0.32
3                          Oc1c(I)cc(I)cc1I  Transthyretin (Homo sapiens) (UniProt P02766)   Binding affinity         384
4  O=C(O)CCCCC(=O)Nc1cc(Cl)cc2c1Oc1cc(Cl)c(Cl)cc1O2  Transthyretin (Homo sapiens) (UniProt P02766)   Binding affinity          15
